meta.source: the supplement of paper PMC8285479

Documented normalised cell viability across a set of compounds
system: NCI-H1944; assay: normalised cell viability (NPI; 0 = phenylarsine oxide control, 1 = DMSO control) (fraction of DMSO control); NCI-H1944 is a non-small cell lung cancer line; higher = more viable cells (less compound toxicity); conditions: glucocorticoid arm: hydrocortisone 2.75 uM co-treatment; compound 1 µM; 6 days;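 also: CTB read-out in 384-well plates, triplicate wells, NPI normalised per plate against 1 µM phenylarsine oxide (0) and 0.1% DMSO (1) controls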
Where a name gives a salt, the structure may show the parent alone. In all, about 1,900 compounds were measured (“normalised cell viability (NPI; 0 = phenylarsine oxide control, 1 = DMSO control)”: median about 1, lowest 2% from about 0.039 on). The list comes from a sample in which the lowest values are over-represented; it also holds close analogues and randomly drawn compounds.
Just the number, please.

CC(C)C[C@H](NC(=O)[C@H](Cc1ccccc1)NC(=O)c1cnccn1)B(O)O [Bortezomib] = 0.281
C=CCN1CCc2c(cc(O)c(O)c2Br)[C@@H](c2ccccc2)C1 [R(+)-6-Bromo-APB hydrobromide] = 0.986
CC(C)C[C@H](NC(=O)[C@H](Cc1ccccc1)NC(=O)c1cnccn1)B(O)O [Bortezomib (Velcade)] = 0.352

Please turn your attention to the following entry.
Look up normalised cell viability: O=C(N[C@@H](Cc1ccccc1)C(=O)CCl)OCc1ccccc1
1.03
